Measured values drawn from patent US4943629A for this set.

Molecular target: purified rat liver 6-phosphofructo-1-kinase (Rattus norvegicus, UniProt P30835)
Construct: purified rat liver 6-phosphofructo-1-kinase
Sequence (P30835 2-780 limits assumed): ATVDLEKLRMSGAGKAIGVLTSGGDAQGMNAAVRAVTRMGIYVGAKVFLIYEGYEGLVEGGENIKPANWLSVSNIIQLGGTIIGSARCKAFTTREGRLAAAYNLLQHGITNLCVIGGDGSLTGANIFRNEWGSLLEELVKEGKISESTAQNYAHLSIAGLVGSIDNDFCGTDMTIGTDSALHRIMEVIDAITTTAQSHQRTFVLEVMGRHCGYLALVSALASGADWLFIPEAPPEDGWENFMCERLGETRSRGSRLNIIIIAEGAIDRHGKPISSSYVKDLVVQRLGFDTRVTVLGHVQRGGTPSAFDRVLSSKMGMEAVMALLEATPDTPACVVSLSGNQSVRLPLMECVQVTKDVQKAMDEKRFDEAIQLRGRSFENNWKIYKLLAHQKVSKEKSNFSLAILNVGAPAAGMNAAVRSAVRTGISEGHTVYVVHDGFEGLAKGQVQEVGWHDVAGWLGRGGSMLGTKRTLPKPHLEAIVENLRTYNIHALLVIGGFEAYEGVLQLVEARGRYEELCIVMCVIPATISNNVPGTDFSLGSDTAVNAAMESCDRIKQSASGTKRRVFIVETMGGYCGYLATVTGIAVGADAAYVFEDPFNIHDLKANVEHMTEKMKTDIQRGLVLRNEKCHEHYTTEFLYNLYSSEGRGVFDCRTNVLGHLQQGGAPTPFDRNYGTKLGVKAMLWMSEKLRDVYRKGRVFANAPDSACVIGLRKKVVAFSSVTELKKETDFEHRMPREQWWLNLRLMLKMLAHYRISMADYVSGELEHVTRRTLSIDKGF
Test: stimulation of 6-phosphofructo-1-kinase (PFK), aldolase-coupled spectrophotometric assay
Conditions: pH 7.3, 30° C., 1 mM ATP, 0.2 mM fructose-6-phosphate, read-out: PFK ED50
pEC50: −log10 of the molar value.
MEASURED PROPERTY: pEC50

For purified rat liver 6-phosphofructo-1-kinase (Rattus norvegicus, UniProt P30835), give pEC50 of the listed molecule: O=P(O)(O)OC[C@H]1O[C@H](C(F)P(=O)(O)O)[C@@H](O)[C@@H]1O (stereo partly shown) 4.66

Find the measured pEC50 of O=P(O)(O)OC[C@H]1O[C@H](CC(O)P(=O)(O)O)[C@@H](O)[C@@H]1O (stereo partly shown) with purified rat liver 6-phosphofructo-1-kinase (Rattus norvegicus, UniProt P30835) as test system. 6.00

Look up and report measured pEC50 (purified rat liver 6-phosphofructo-1-kinase (Rattus norvegicus, UniProt P30835)) for the following molecule: O=P(O)(O)OC[C@H]1O[C@H](C(F)(F)P(=O)(O)O)[C@@H](O)[C@@H]1O 4.85

Give pEC50; test system purified rat liver 6-phosphofructo-1-kinase (Rattus norvegicus, UniProt P30835); molecule O=P(O)(O)OC[C@H]1O[C@@](CO)(C(F)P(=O)(O)O)[C@@H](O)[C@@H]1O (single isomer, unassigned) 6.15

Param request: pEC50 | system purified rat liver 6-phosphofructo-1-kinase (Rattus norvegicus, UniProt P30835) | item O=P(O)(O)OC[C@H]1O[C@H](CC(F)P(=O)(O)O)[C@@H](O)[C@@H]1O (stereo partly shown) 5.89

# lookup: purified rat liver 6-phosphofructo-1-kinase (Rattus norvegicus, UniProt P30835) pEC50, key = O=P(O)(O)OC[C@H]1O[C@](CO)(C(F)P(=O)(O)O)[C@@H](O)[C@@H]1O (stereo partly shown) 5.89

Check purified rat liver 6-phosphofructo-1-kinase (Rattus norvegicus, UniProt P30835) data and give pEC50 for O=P(O)(O)OC[C@H]1OC(C(F)P(=O)(O)O)[C@@H](O)[C@@H]1O (mixture of isomers) . 5.00

Write down measured pEC50 (purified rat liver 6-phosphofructo-1-kinase (Rattus norvegicus, UniProt P30835)) for this molecule. O=P(O)(O)OC[C@H]1O[C@](CO)(C(O)P(=O)(O)O)[C@@H](O)[C@@H]1O (stereo partly shown) 4.70

(P) O=P(O)(O)OC[C@H]1O[C@H](C(O)P(=O)(O)O)[C@@H](O)[C@@H]1O (stereo partly shown)
(Q) O=P(O)(O)OC[C@H]1O[C@H](CC(F)(F)P(=O)(O)O)[C@@H](O)[C@@H]1O
Sorting ascending by pEC50, which comes first: P or Q ? The response must carry the label of the picked entry. P
